assayed-target: UniProtKB P25102
Sequence (P25102 whole entry): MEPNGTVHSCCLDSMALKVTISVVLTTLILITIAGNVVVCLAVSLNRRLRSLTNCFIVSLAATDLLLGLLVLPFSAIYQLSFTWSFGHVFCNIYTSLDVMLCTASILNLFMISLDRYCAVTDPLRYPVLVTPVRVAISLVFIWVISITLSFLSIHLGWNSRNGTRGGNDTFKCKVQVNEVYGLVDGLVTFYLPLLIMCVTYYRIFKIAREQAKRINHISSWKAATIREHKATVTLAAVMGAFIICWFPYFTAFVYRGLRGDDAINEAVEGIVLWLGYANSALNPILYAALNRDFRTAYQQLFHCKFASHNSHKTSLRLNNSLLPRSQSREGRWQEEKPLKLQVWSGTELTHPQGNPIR
procedure-text: Antagonistic activity by inhibition histamine H2 receptor from rats.
Assay type: functional
assay-setup: read-out: pA2 (converted)
quantity-measured: Kb (nM)
Provide the reading as a plain figure in nM.

> print(dat)
                            chemical.smiles    assayed.target  quantity.measured  units.symbol  measured.value
1  CN1C(=O)[C@H](NC(=O)Nc2cccc(COC(=O)NCCNC(=O)CC(=O)NCCCOc3cccc(CN4CCCCC4)c3)c2)N=C(c2ccccc2)c2ccccc21  UniProtKB P25102                 Kb            nM             158
2  CC(C)(C)OC(=O)NCCCC(=O)NCCCOc1cccc(CN2CCCCC2)c1  UniProtKB P25102                 Kb            nM            15.8
3  Cc1cccc(NC(=O)N[C@@H]2N=C(c3ccccc3)c3ccccc3N(CCOC(=O)NCCCC(=O)NCCCOc3cccc(CN4CCCCC4)c3)C2=O)c1  UniProtKB P25102                 Kb            nM            1000

Alright, here's another compound for you.
Asked: Given the entry "Cc1cccc(NC(=O)N[C@@H]2N=C(c3ccccc3)c3ccccc3N(CCOC(=O)NCCCC(=O)NCCSCc3csc(N=C(N)N)n3)C2=O)c1" , what Kb was observed with UniProtKB P25102?
Given back: 3160
